These entries and their values trace back to patent US11203571B2.

Measured pIC50, listed per entry.
# target_system: human Nav1.8 (Homo sapiens (Human), UniProt Q9Y5Y9)
# Sequence (Q9Y5Y9 whole entry): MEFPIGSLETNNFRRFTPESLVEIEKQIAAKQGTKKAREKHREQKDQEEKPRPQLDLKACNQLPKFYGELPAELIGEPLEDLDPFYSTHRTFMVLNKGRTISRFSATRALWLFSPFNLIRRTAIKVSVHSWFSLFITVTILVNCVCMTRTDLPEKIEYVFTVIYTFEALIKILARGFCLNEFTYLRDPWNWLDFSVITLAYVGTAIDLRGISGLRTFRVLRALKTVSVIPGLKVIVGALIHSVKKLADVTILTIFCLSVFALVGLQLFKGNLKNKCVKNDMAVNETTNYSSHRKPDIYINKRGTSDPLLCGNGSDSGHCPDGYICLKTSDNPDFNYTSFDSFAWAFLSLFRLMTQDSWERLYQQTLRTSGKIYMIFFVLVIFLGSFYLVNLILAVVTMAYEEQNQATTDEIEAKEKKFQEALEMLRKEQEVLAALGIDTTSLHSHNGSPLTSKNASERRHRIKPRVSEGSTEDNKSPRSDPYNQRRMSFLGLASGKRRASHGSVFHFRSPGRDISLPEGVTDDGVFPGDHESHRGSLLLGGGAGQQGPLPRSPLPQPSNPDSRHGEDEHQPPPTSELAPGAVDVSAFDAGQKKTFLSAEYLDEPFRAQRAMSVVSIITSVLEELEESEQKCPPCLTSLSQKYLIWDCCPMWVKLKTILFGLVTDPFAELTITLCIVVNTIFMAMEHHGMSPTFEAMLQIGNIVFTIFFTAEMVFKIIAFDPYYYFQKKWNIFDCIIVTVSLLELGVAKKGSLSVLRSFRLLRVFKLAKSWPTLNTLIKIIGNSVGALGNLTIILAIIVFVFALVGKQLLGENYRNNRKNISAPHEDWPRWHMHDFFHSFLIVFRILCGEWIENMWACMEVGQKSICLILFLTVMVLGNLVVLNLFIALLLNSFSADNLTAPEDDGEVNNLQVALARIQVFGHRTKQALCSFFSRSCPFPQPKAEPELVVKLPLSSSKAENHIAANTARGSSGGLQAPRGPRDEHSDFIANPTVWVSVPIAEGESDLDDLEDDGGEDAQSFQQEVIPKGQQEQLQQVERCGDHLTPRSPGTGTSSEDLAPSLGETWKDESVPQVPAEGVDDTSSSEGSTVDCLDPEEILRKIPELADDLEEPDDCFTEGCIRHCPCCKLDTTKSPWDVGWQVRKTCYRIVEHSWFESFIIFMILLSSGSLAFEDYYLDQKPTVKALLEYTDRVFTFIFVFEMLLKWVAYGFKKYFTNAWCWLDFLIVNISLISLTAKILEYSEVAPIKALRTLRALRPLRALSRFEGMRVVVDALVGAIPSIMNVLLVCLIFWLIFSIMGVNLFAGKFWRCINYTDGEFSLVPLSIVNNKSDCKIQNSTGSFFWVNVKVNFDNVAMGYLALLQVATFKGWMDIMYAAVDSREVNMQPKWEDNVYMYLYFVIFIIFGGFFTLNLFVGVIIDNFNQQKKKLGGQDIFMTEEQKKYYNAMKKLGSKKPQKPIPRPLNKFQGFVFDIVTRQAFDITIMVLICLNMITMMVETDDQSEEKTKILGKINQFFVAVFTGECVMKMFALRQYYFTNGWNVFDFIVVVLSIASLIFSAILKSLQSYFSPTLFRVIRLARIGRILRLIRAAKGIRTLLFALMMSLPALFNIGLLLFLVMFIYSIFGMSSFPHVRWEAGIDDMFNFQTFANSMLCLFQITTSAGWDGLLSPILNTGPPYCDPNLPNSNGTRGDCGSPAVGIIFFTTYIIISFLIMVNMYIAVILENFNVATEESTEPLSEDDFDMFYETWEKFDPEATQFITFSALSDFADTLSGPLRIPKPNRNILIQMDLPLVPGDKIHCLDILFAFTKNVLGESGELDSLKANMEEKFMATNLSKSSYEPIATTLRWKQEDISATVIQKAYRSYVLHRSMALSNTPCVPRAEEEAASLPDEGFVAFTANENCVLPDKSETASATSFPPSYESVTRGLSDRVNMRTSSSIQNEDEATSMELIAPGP
# assay_remarks: E-VIPR optical membrane potential assay with electrical stimulation
# test_parameters: HEK cells expressing human Nav1.8
pIC50: −log10 of the molar value.

>  <entry_smiles>
CC(C)Oc1ccc(Oc2cc(Cl)ccc2C(=O)Nc2cccc(S(N)(=O)=O)c2)cc1

>  <pIC50>
7.54

$$$$
>  <entry_smiles>
NS(=O)(=O)c1cccc(NC(=O)c2cc(C(F)(F)F)ccc2Oc2ccc(F)cc2F)c1

>  <pIC50>
7.89

$$$$
>  <entry_smiles>
NS(=O)(=O)c1cccc(NC(=O)c2cc(C(F)(F)F)ccc2Oc2ccc(OC(F)F)cc2)c1

>  <pIC50>
7.66

$$$$
>  <entry_smiles>
COc1cc(Cl)ccc1Oc1cc(Cl)ccc1C(=O)Nc1cccc(S(N)(=O)=O)c1

>  <pIC50>
7.82

$$$$
>  <entry_smiles>
Cc1c(F)cccc1Oc1cccc(C(F)(F)F)c1C(=O)Nc1cccc(S(N)(=O)=O)c1

>  <pIC50>
7.85

$$$$
